test system: S. mobaraensis enzyme; experiment: Hydrolysis activity on Nε-acyl-L-lysines with various acyl groups, S. mobaraensis enzyme; format: biochemical, Streptomyces mobaraensis; settings: 1-hour reaction, 50 mM Tris-HCl buffer pH 8.2, 37° C.
Could you please report measured Specific activity, S. mobaraensis enzyme for the items listed next?
Your answer is read as µmol/mg, so omit the unit and give the number.

Specific activity, S. mobaraensis enzyme in this record for CCCCCCCC(=O)NCCCC[C@H](N)C(=O)O [Nε-octanoyl-L-Lys] : 570

Noted for CCCCCCCCCCCC(=O)N[C@@H](CCCCN)C(=O)O [Nα-lauroyl-L-Lys] : its Specific activity, S. mobaraensis enzyme reads 0

What the record says about CCCCCCCCCCCC(=O)NCCCC[C@H](N)C(=O)O [Nε-lauroyl-L-Lys] : Specific activity, S. mobaraensis enzyme is 28

###

test system: aminoacylase of the present invention (Nε-acyl-L-lysine-specific aminoacylase); test: Effect of various inhibitors on the hydrolyzing activity of the aminoacylase; format: biochemical, Streptomyces mobaraensis; conditions: added concentration 1 mM; hydrolysis activity where nothing was added = 100
Consider the following compounds; for each one, report its Relative activity (%).
Remember to follow the number with its unit.

The reported value for NC(=O)CI [Iodoacetamide] in terms of Relative activity (%) is 83.1%

Just so you know, measured Relative activity (%) for O=C(O)CN(CCN(CC(=O)O)CC(=O)O)CC(=O)O [EDTA] came out at 74.6%

// Relative activity (%) value for O[C@@H](CS)[C@@H](O)CS [DTT] : 64.7%

// Relative activity (%) lookup, compound = O=C(O)c1cc[c]([Hg][Cl])cc1 [PCMB] , result: 86.1%

Short answer for N[C@@H](CS)C(=O)O [L-cysteine] : Relative activity (%) was 77.6%

Looking up N[C@@H](CCC(=O)N[C@@H](CS)C(=O)NCC(=O)O)C(=O)O [GSH] , I see its Relative activity (%) listed as 80.0%

Summary for this compound, c1cnc2c(c1)ccc1cccnc12 [0-phenanthroline] : Relative activity (%) is 10.3%

###

Give measured Specific activity, S. mobaraensis enzyme for each item. Keep answers brief.
tested on: S. mobaraensis enzyme; assay: Hydrolysis activity on Nε-acyl-L-lysines with various acyl groups, S. mobaraensis enzyme; assay type: biochemical, Streptomyces mobaraensis; details: 1-hour reaction, 50 mM Tris-HCl buffer pH 8.2, 37° C.

Lab note: measured Specific activity, S. mobaraensis enzyme of `N[C@@H](CCCCNC(=O)CCl)C(=O)O` was 1,030 μmol/mg

# Specific activity, S. mobaraensis enzyme of `N[C@@H](CCCCNC(=O)c1ccccc1)C(=O)O` = 1,380 μmol/mg

For record `CC(=O)NCCCC[C@H](N)C(=O)O` the listed Specific activity, S. mobaraensis enzyme is 3,370 μmol/mg

Each recorded value in this set is attributed to patent US7888079B2.
